B1: library; numbered along this chain (parent)
chain: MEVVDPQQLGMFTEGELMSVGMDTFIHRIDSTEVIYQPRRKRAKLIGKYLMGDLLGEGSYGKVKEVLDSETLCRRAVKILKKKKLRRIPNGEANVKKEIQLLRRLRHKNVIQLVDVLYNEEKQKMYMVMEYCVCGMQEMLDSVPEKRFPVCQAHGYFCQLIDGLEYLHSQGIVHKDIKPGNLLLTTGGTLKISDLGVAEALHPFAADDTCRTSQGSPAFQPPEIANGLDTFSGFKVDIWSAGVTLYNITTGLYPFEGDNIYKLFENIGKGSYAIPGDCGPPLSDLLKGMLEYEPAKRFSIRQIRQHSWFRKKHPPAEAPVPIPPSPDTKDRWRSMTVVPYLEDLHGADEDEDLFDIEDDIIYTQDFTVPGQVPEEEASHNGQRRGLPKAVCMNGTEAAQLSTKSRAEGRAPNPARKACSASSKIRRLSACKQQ

# Variants of: B1
# procedure.text: STK11 functional score (HeLa growth suppression), rescaled enrichment; synonymous median = 1, nonsense median = 0 (normalised score)
# measurement.setup: with HeLa; variant type: missense
outcome.measure: STK11 functional score
I only need the number, thanks.

Endpoint output: STK11 functional score of "H174A" . Value?
0.322

Endpoint output: STK11 functional score of "Y272C" . Value?
1.13

Endpoint output: STK11 functional score of "M136N" . Value?
-0.15

Endpoint output: STK11 functional score of "T230C" . Value?
1.19

Endpoint output: STK11 functional score of "I99M" . Value?
1.07

Endpoint output: STK11 functional score of "I424F" . Value?
1.04

Endpoint output: STK11 functional score of "K84T" . Value?
0.646

Endpoint output: STK11 functional score of "D258C" . Value?
1.16

Endpoint output: STK11 functional score of "D176N" . Value?
-0.273

Endpoint output: STK11 functional score of "V320Y" . Value?
1.55

Endpoint output: STK11 functional score of "I99R" . Value?
0.708
